Cited source for all entries: ChEMBL document CHEMBL1201862

- Test system: SR
- assay.details: NCI tumour cell line growth inhibition, 48 h
Active and inactive are the calls of the source. No stated cut-off is given here; in the data, active = GI50 up to about 1.1 µM and inactive = higher.
Outcomes: active, inactive

| molecule | cat |
| --- | --- |
| Cc1ccc(SCN2CCCCC2)cc1.O=C(Cl)c1ccc([N+](=O)[O-])cc1 | inactive |
| COc1cc(OC)c(/C=N/N=C(\N)NO)c(OC)c1 | inactive |
| CC(=O)OCCOCNC(=S)N/N=C/c1ccc2ccccc2n1 | inactive |
| CCSc1nc(C)nc2c1sc1nc3ccccc3n12 | inactive |
| CC(C)(C)c1ccc(O)c(CN(Cc2cc(C(C)(C)C)ccc2O)c2ccccc2)c1 | inactive |
| CC1=C(CCC(C)CO)O[C@H]2C[C@H]3[C@@H]4CC[C@H]5C[C@@H](O)CC[C@]5(C)[C@H]4CC(=O)[C@]3(C)[C@@H]12 (stereo partly drawn) | inactive |
| NC(=O)c1csc(C2OC(CO)C(O)C2O)n1 (stereo not drawn) | inactive |
| Cc1ccc(/N=N/c2c(O)c(C(=O)O)cc3ccccc23)c(S(=O)(=O)O)c1 | inactive |
| CC1CC2=C(C1)C(C1(C)C(=O)CC3C(C1=O)C3(C)C)C(C)C2=O (stereo not drawn) | inactive |
| N/C(=N\Nc1cccc(Cl)c1)c1cccnc1 | inactive |
| COC(c1cccc(C(O)(C(F)(F)F)C(F)(F)F)c1)(C(F)(F)F)C(F)(F)F | inactive |
| C#CC[C@]12CC(=O)CC[C@H]1CC(=O)C2 | inactive |
| O=P(O)(O)CN1CCNCCN(CP(=O)(O)O)CCN(CP(=O)(O)O)CCNCC1 | inactive |
| O=C(OC1C#CCSCC#C/C=C\1)c1ccc2c(c1)C(=O)c1ccccc1C2=O (stereo not drawn) | inactive |
| O=C1C(c2ccccc2)=[N+]([O-])c2cc([N+](=O)[O-])c(/C(Cl)=C/c3ccccc3)cc21 | inactive |
| CCOP(=O)(OCC)/C(C#N)=C/c1cccn1C | inactive |
| COc1cccc2nc3ccccc3nc12 | inactive |
| O=S(=O)(Nc1nc2ccccc2nc1Nc1ccc2ccccc2c1)c1ccccc1 | inactive |
| CCN(CC)CCC(=O)NC1c2ccc(Cl)cc2Oc2c(C)cccc21 (stereo not drawn) | inactive |
| O=c1oc2ccc(Cl)cc2cc1-c1cn2cc(Cl)ccc2n1 | active |
| COc1cc2c(c3nc4ccccc4nc13)-c1ccc(SC)c(=O)cc1[C@@H](NC(C)=O)CC2 | active |
| O=C(O)c1c(CC(Cc2ccc3c(c2)CCC3)C(=O)O)ccc2c1CCC2 (stereo not drawn) | inactive |
| CC(=O)Nc1ccc2c3c(cc(O)c2c1)N(C(=O)CCCCCC(=O)N1CC(CCl)c2c1cc(O)c1cc(NC(C)=O)ccc21)CC3CCl (stereo not drawn) | active |

---

- Test system: NCI-H23
- assay.details: NCI tumour cell line growth inhibition, 48 h
Calls of active or inactive are those of the source. Cut-off read from the data, not from the text of the source: active = GI50 up to about 1.1 µM and inactive = higher.
Classes used: 1 = active, 0 = inactive

| compound | cat |
| --- | --- |
| O=S(=O)(Nc1nc2ccccc2nc1Nc1ccc2ccccc2c1)c1ccccc1 | 0 |
| CCOC(=O)/C(C(=O)Nc1ccc(Cl)cc1)=C(/N)N1CCOCC1 | 0 |
| Cc1c2cnccc2c(C)c2c1c1ccccc1n2CCCN | 1 |
| NC12c3c4cccc3Oc3cccc(c31)Oc1cccc(c12)O4 | 0 |
| CCN(CC)CCCNc1n[n+]([O-])c2ccccc2[n+]1[O-] | 0 |
| CC(=O)OC(OC(C)=O)c1c2ccccc2cc2ccccc12 | 0 |
| C[P+]1(c2ccccc2)CCCCC1 | 0 |
| Cc1cc(S(=O)(=O)Nc2nc3ccccc3nc2-c2cccc([N+](=O)[O-])c2)c(S)cc1Cl | 0 |
| CCC1CC(=O)N(SCC(N)C(=O)O)C1=O (stereo unspecified) | 0 |
| CC(=O)c1ccc(NC(=O)C(=O)C(C#N)CC(C)(C)C=O)cc1 (stereo unspecified) | 0 |
| CC1=CC(=O)c2ccc(C)cc2C1=O | 0 |
| C[C@@H]1[C@@H](C)C(c2ccccc2)O[Si]1(C(C)(C)C)C(C)(C)C (stereo partly specified) | 0 |
| O=C1CC2OCC=C3CN4CCC5(C(=O)O)C(N1)C2C3CC45 (stereo unspecified) | 0 |
| CC1=C(O)C(=O)[C@@H]2O[C@@H]2C1=O | 0 |
| CC1C(=O)N(C)C2(CO)C(=O)O[C@H](C)C12O (stereo partly specified) | 0 |
| O=C(O)CCc1cccc2c1oc1c(CCC(=O)O)cccc12 | 0 |
| O=C(O)c1c(CC(Cc2ccc3c(c2)CCC3)C(=O)O)ccc2c1CCC2 (stereo unspecified) | 0 |
| O=P1(Oc2ccc(Cl)cc2Cl)Oc2cc3ccccc3cc2O1 | 0 |
| CCOC(=O)/C(=C/c1ccc(OC)c(OC)c1)C(=O)c1ccccc1 | 0 |
| CC1CC2=C(C1)C(C1(C)C(=O)CC3C(C1=O)C3(C)C)C(C)C2=O (stereo unspecified) | 0 |
| C=CCNC(=S)N1c2ccccc2NC(=O)CC1C (stereo unspecified) | 0 |
| CCN1CCC(O)(/C=C/c2ccc(Cl)cc2)C(C(=O)/C=C/c2ccc(Cl)cc2)C1 (stereo unspecified) | 0 |
| COc1cc(Nc2cnc3cc(F)c(F)cc3n2)cc(OC)c1OC | 0 |
| C[N+]1(C)C2Cc3ccccc3C1Cc1ccccc12 | 0 |
| C=C1CC(OC)(C(O)C(=O)N[C@H]2OCO[C@H]3C2O[C@H](C[C@H](O)COC)C(C)(C)C3OC)O[C@H](C)[C@@H]1C (stereo partly specified) | 1 |
| Clc1ccc(SCCSCCCCCCCCCCSCCSc2ccc(Cl)cc2)cc1 | 0 |
| COc1cc2c(c3nc4ccccc4nc13)-c1ccc(SC)c(=O)cc1[C@@H](NC(C)=O)CC2 | 1 |
| CC(C)c1cccc(C(C)C)c1NC(=O)C(=O)C1SC(=S)NC1=O (stereo unspecified) | 0 |
| Nn1c(Sc2nc3ccccc3c(=O)n2N)nc2ccccc2c1=O | 0 |
| C=C(COC(=O)C(C)C)[C@H]1Oc2ccc(C(C)=O)cc2[C@@H]1OC(=O)C(C)C | 0 |
| NCOC(=O)Cc1ccc(Br)cc1 | 0 |
| COC(=O)C(=O)C(C(=O)C(=O)Nc1ccc(C)c(C)c1)c1nc2ccc([N+](=O)[O-])cc2nc1O (stereo unspecified) | 0 |
| O=C(O)CCN(CCC(=O)O)c1ccc(/C=C2\SC(=S)NC2=O)cc1 | 0 |
| CCOC(=O)c1ccc(/N=C2\SC(=S)N(c3ccc(F)cc3)\C2=N/c2ccc(C(=O)OCC)cc2)cc1 | 0 |
| Cc1ccc(N(C)S(=O)(=O)c2ccccc2)cc1 | 0 |
| Clc1ccc(C(c2ccc(Cl)cc2)N2CCNCC2)cc1 | 0 |
| OCC1OC(c2nc(C3=NCCCN3)cs2)C(O)C1O (stereo unspecified) | 0 |
| CC(C)(Br)C(=O)/C=C/c1ccccc1 | 0 |
| N#CCCSC1SC(=C2SC3=C(SCCS3)S2)SC1SCCC#N (stereo unspecified) | 0 |
| O=C1CCCCc2cccc(O)c21 | 0 |
| CC1CN=C(Nc2ccccc2)S1 (stereo unspecified) | 0 |
| CC(=O)N(C(C)=O)n1c(Cc2ccc(C)cc2)nn(C(C)=O)c1=O | 0 |
| O=C(CCc1nnc(S)[nH]1)Nc1cccc(C(F)(F)F)c1 | 0 |
| O=C1c2ccccc2CC1C1(O)C(=O)Nc2c(Cl)cc(Cl)cc21 (stereo unspecified) | 0 |
| COc1ccc(NC(=O)C2C(=O)N(c3ccc(OC)cc3)C(=O)/C2=N\N)cc1 (stereo unspecified) | 0 |
| OC[C@@H]1CC#C/C=C\C#CC[C@@H]1CO | 0 |

---

- System: M14
- assay.details: NCI tumour cell line growth inhibition, 48 h
Calls of active or inactive are those of the source. No stated cut-off is given here; in the data, active = GI50 up to about 1.1 µM and inactive = higher.

| compound | GI50 |
| --- | --- |
| O=C1ON=C2C3CC4CC12CC1(C3)C(=O)ON=C41 | > 100 µM (inactive) |
| Nn1c(Sc2nc3ccccc3c(=O)n2N)nc2ccccc2c1=O | 1.8 µM (inactive) |
| COc1cc2c(cc1OC)C(Cl)C(c1ccc(Cl)cc1)=C2Cl (stereo unspecified) | 15.4 µM (inactive) |
| O=C(OC1C#CCSCC#C/C=C\1)c1ccc2c(c1)C(=O)c1ccccc1C2=O (stereo unspecified) | 65.2 µM (inactive) |
| OC[C@@H]1CC#C/C=C\C#CC[C@@H]1CO | > 100 µM (inactive) |
| CCOc1c(Cc2ccccc2)c(=O)n2c3ccccc3n3c(=O)n(C)c(=O)c1c23 | > 100 µM (inactive) |

---

- System: NCI-H522
- assay.details: NCI tumour cell line growth inhibition, 48 h
Calls of active or inactive are those of the source. No stated cut-off is given here; in the data, active = GI50 up to about 1.1 µM and inactive = higher.
Outcome codes: active, inactive

| compound | cat |
| --- | --- |
| Cc1ccc(SCN2CCCCC2)cc1.O=C(Cl)c1ccc([N+](=O)[O-])cc1 | inactive |
| COc1ccc(OC)c2c(C(C)=O)cccc12 | inactive |
| COc1ccc2nc3cccc([N+](=O)[O-])c3c(NCCO)c2c1 | active |
| CC(C)(C)OC(=O)N(CCCCNCc1ccc2ccccc2c1)CCCNCc1ccc2ccccc2c1 | inactive |
| CCOC(=O)C(=[N+]=[N-])C(=O)Nc1nn2nnnc2c2ccccc12 | inactive |
| CCC12C=CCN3CC[C@]4(C(=C(C(=O)OC)[C@@H]1Nc1ncnc5c1ncn5C1OC(COC(C)=O)C(OC(C)=O)C1OC(C)=O)Nc1ccccc14)C32 (some centres undefined) | inactive |
| Cc1c(-c2ccc(-c3ccccc3F)cc2)nc2ccc(F)cc2c1C(=O)O [BREQUINAR SODIUM] | inactive |
| COc1cc(Nc2cc(Cl)cc(Cl)c2)nc(N)n1 | inactive |
| CC1=CC(=O)c2ccc(C)cc2C1=O | inactive |
| O=S(=O)(NC1OCCCC1I)c1ccccc1 (centres undefined) | inactive |
| CCC(COC(=O)CC[C@@H](NC(=O)C(C)NC(=O)C(C)OC1C(O)C(CO)OC(OCc2ccccc2)C1NC(C)=O)C(N)=O)NC1c2ccccc2Nc2cccc([N+](=O)[O-])c21 (some centres undefined) | inactive |
| Cc1c2cnccc2c(C)c2c1c1ccccc1n2CCCN | active |
| CN(C)c1nc(N(C)c2ccccc2)[s+]s1 | inactive |
| OC(c1cc(C(O)(C(F)(F)F)C(F)(F)F)ncn1)(C(F)(F)F)C(F)(F)F | inactive |
